Property: S/N; scope: individual binders
# Experimental Target: T1, hVEGF-A (8-109) (human, UniProt P15692 214-315)
# T1 construct: residue numbers count on mature VEGF-A; dimer
# T1 sequence (looked up): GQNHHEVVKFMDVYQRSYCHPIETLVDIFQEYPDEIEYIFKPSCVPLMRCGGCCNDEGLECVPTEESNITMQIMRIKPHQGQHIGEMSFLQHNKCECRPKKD
# Assay Method Text: spot phage ELISA
Measure: S/N

1. GCNIMLPFWGCGLDYDCLAGCVCQYYQSCG (designed binder) [VEGF_CKP9.54.2]    26
2. GCPTTRFKQYCKQDSDCLAGCVCGPNGFCG (designed binder) [VEGF_CKP6]    51.9
3. GCALLQPLWGCKQDSDCLAGCVCRWYNSCG (designed binder) [VEGF_CKP9.69]    14.3
4. GCRLLEPSWGCKQDSDCLAGCVCQWYQSCG (designed binder) [VEGF_CKP9.72]    10
5. GCLDPSFDWALYCKQDSDCLAGCVCQLYNSCG (designed binder) [LRP6_CKP7.89]    8.1
6. GCETDWYPHQIDCKQDSDCLAGCVCGPNGFCG (designed binder) [VEGF_CKP1]    16.9
7. GCNPMLPLWGCKQDSDCLAGCVCHWYQSCG (designed binder) [VEGF_CKP9.L1.78]    25.1
